Kindly state IC50 (nM), antagonist activity measured by β-arrestin assay for each of the entries shown.
Subject of test: human C-C chemokine receptor type 8 (hCCR8) (human, UniProt P51685 1-355)
Sequence (P51685 whole entry): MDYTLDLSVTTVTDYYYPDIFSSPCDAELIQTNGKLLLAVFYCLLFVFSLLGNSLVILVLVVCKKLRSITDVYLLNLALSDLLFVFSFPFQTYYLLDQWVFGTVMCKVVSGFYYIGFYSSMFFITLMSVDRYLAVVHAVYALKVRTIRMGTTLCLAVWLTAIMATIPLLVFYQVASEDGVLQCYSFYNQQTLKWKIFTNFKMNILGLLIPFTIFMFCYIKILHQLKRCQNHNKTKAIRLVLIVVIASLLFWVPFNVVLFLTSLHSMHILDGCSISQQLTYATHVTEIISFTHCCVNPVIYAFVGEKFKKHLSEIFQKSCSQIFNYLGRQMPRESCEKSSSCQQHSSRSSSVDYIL
Run description: cell-based or functional assay
Lab book: enter the figure in nM, no units written.

Prompt: Fill in reported IC50 (nM), antagonist activity measured by β-arrestin assay for this entry: murine-human chimeric (human IgG1) antibody 516D7D12 (antibody, V domains shown, Chimeric antibody derived from murine antibody A10 and human IgG1) VH: EVQLVESGGGLVQPKGSLKLSCAASGFSFNTYAMNWVRQAPGKGLEWVARIRTKSNNYATYYADSVKDRFTISRDDSESMLYLQMNNLKTEDTAMYYCVRGGSGLRYVRYFDVWGTGTTVTVSS VL: DIVMTQATPSVPVTPGESVSISCRSSKSLLHSNGNTYLYWFLQRPGQSPQLLIYRMSNLASGVPERFSGSGSGSAFTLRVSRVEAEDVGVYYCMQHLEYPFTFGSGTKLEIKR
Completion: 1.51

Prompt: Fill in reported IC50 (nM), antagonist activity measured by β-arrestin assay for this entry: mouse antibody 41E1C2A5 (MAb 1) (antibody, V domains shown, Mouse monoclonal antibody from a hybridoma; also called A1) VH: EVQLVESGGGLVQPKGSLKLSCAASGFSFNAYAMNWVRQAPGKGLEWVARIRSKSNNYATYYADSVKDRFTISRDDSETMLYLQMNNLKTEDTAMYFCVRGGTYGSSSYFDYWGQGTTLTVSS VL: DIVMTQAAPSVPVTPGESVSIPCRSSKSLLHSNGNTYLYWFLQRPGQSPQLLIYRMSNLASGVPDRFSGSGSGTAFTLRISRVEAEDVGVYYCMQHLEYPFTFGGGTKLQIR
Completion: 4.68

Prompt: Fill in reported IC50 (nM), antagonist activity measured by β-arrestin assay for this entry: mouse antibody 80E4D1F11 (MAb 3) (antibody, V domains shown, Mouse monoclonal antibody from a hybridoma; also called A3) VH: EVQLVESGGGLVQPKGSLKLSCAASGFSFNTYAMNWVRQAPGKGLEWVARIRSKSNNYATYYADSVKARFTISRDDSESMLYLQMNNLKTEDTAMYFCVRGGTYGSTSYFDYWGQGTTLTVSS VL: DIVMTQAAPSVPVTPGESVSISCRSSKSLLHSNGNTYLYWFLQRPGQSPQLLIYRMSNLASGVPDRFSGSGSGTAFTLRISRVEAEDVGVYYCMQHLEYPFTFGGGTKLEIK
Completion: 7.11
